Measured parameter: melting point

Here is how some compounds turned out for melting point.
Nc1cccc(-c2nnc3n2CCCCC3)c1 = 200 to 202 °C
COc1ccccc1NCCC(N)=O = 94 to 96 °C
ClCc1cnc(-c2ccccc2)s1 = 57 to 59 °C
O=c1[nH]c(-c2ccccc2Cl)cs1 = 182 to 184 °C
N#Cc1ccc(-c2csc(N)n2)cc1 = 267 to 269 °C
O=C1CNc2ccc(S(=O)(=O)N3CCCCC3)cc2N1 = 144 to 146 °C
C=CCN(c1ccc(OC)cc1)S(=O)(=O)c1ccc(Cl)c(C(=O)O)c1 = 109 to 111 °C
CC(O)c1nc(-c2ccccc2)cs1 (stereo not drawn) = 75 to 77 °C
N#Cc1cccc(OCC(F)F)n1 = 49 to 51 °C
c1ccc(CNc2nc3ccccc3[nH]2)cc1 = 147 to 149 °C

Parameter requested: melting point. Apply to each item below.
1. O=C(O)c1ccc(-c2ccc([N+](=O)[O-])cc2Cl)o1
2. O=C(O)c1nn(-c2cccc(Br)c2)c2c1CCCC2
3. O=C(O)c1ccccc1Oc1cccnc1

1: 251 to 253 °C; 2: 193 to 195 °C; 3: 134 to 136 °C

###

Field: melting point. Provide a value for each of the compounds that follow.

Parameter requested: melting point. Apply to each item below.
1. O=Cc1ccc(OCc2ccccc2)c(Br)c1
2. Cc1cccc(NC(=O)[C@@H]2CCCN2)n1
3. O=C(O)c1ccc(OC2CCCCC2)cc1
4. O=C(O)CC1(C(=O)O)CCN(C(=O)OCc2ccccc2)C1 (configuration not stated)
5. O=C1CCc2cc(C(=O)O)ccc2N1
6. COc1ccc2nc(Cl)ccc2c1S(=O)(=O)Cl
7. CC(Sc1ccc(C#N)cc1)C(=O)O (configuration not stated)
8. CNc1ccnc(C)n1

1. 96 to 98 °C
2. 62 to 64 °C
3. 184 to 186 °C
4. 169 to 171 °C
5. 261 to 263 °C
6. 136 to 138 °C
7. 114 to 116 °C
8. 79 to 81 °C

Parameter requested: melting point. Apply to each item below.
1. O=C(O)c1cc(S(=O)(=O)NCCOc2ccccc2)ccc1Cl
2. COc1ccc(COc2ccc(C#N)cn2)cc1

169 to 171 °C
101 to 103 °C

Parameter requested: melting point. Apply to each item below.
1. Nc1cc(Br)ccc1O
2. Cc1cc([N+](=O)[O-])ccc1NC(=O)CCCl

127 to 129 °C
147 to 149 °C

Parameter requested: melting point. Apply to each item below.
1. NNC(=O)CSc1nnc(-c2ccccc2)n1-c1ccccc1
2. Cc1ccc(C(=O)Cc2ccccn2)cc1
3. Cc1cc(-c2ccccc2)nc(S)n1
4. NC(=O)NCc1ccc(C(=O)O)cc1
5. O=C(O)c1csc(-c2ccc(Cl)s2)n1
6. O=C(O)C1CCN(S(=O)(=O)c2ccc3c(c2)CCCC3)CC1
7. N#Cc1cnc(C(=O)O)c(Cl)c1
8. CCc1ccc(-c2nn[nH]n2)cc1

1: 242 to 244 °C; 2: 73 to 75 °C; 3: 208 to 210 °C; 4: 291 to 293 °C; 5: 247 to 249 °C; 6: 181 to 183 °C; 7: 149 to 151 °C; 8: 237 to 239 °C

Parameter requested: melting point. Apply to each item below.
1. Cc1ccc(-n2[nH]c(C(=O)O)c(CCO)c2=O)cc1
2. COc1cn(-c2cccc(C(F)(F)F)c2)nc1C(=O)O
3. COc1ccccc1-c1nnc(S)n1N
4. Cc1nn(-c2ccc(F)cc2)c(Cl)c1C=O
5. Brc1ccc2[nH]c3c(c2c1)CNCC3
6. CS(=O)(=O)Nc1ccc(C(=O)CBr)cc1
7. O=C1CC(NC(=O)C(F)(F)F)c2ccsc21 (configuration not stated)

["199 to 201 °C", "149 to 151 °C", "210 to 220 °C", "124 to 126 °C", "216 to 218 °C", "178 to 180 °C", "133 to 135 °C"]
